Target: human P450 1B1 (Homo sapiens)
Sequence (Q16678 1-543): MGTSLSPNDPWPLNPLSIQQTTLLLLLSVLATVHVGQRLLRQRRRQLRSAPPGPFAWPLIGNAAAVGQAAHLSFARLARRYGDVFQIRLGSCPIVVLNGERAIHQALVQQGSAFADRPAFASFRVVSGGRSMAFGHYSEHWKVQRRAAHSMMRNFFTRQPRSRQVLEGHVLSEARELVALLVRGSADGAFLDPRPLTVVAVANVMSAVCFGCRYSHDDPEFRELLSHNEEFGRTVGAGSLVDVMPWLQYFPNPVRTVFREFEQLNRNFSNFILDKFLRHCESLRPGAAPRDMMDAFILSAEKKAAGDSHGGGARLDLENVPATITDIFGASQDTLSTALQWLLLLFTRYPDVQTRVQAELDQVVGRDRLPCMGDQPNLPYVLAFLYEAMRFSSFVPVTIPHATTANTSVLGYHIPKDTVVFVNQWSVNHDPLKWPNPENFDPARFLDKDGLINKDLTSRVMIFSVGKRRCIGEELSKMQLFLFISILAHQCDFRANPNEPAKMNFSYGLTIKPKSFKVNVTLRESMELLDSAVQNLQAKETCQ
Experiment: Spectral binding titration
Conditions: purified P450 1B1 1.0 μM; means ± SEs; ND = not detected at 100 μM
observable: Reverse Type I spectra ΔAmax
Give the value as a plain number.

> print(dat)
                                   compound  experimental.value
1                 C#Cc1ccc2c(ccc3ccccc32)c1               0.080
2     COc1ccc(-c2cc(=O)c3ccc(O)c(O)c3o2)cc1               0.073
3  COc1ccc(-c2cc(=O)c3c(O)cc(O)cc3o2)cc1OC [34DM57DHF, 3′,4′-dimethoxy-5,7-dihydroxyflavone]               0.037

Request: Sample C#Cc1cc2cccc3ccc4cccc1c4c32 — what was its Reverse Type I spectra ΔAmax?
Result: 0.052

Request: Quick one: Reverse Type I spectra ΔAmax for c1ccc(-c2ccccc2)cc1 [biphenyl, reference compound] ?
Result: 0.037
